# Tested on: human A2.1 pancreatic cancer cells
# Run description: MTS assay of A2.1 cell viability
# Assay type: cell-based
# Settings: Pancreatic cancer cell; human A2.1 cells, MTS assay, 72 hours; read-out: IC50, inhibiting the viability

Compound	Unit name	IC50
CC1(COc2ccc3c(c2)ncn3-c2ccc3cccc(N4CCC(N)CC4)c3n2)COC1 [crenolanib, Crenolanib]	µM	8.5
